experimentalTarget: Gastrin/cholecystokinin type B receptor (Mus musculus)
Sequence (P56481 whole entry): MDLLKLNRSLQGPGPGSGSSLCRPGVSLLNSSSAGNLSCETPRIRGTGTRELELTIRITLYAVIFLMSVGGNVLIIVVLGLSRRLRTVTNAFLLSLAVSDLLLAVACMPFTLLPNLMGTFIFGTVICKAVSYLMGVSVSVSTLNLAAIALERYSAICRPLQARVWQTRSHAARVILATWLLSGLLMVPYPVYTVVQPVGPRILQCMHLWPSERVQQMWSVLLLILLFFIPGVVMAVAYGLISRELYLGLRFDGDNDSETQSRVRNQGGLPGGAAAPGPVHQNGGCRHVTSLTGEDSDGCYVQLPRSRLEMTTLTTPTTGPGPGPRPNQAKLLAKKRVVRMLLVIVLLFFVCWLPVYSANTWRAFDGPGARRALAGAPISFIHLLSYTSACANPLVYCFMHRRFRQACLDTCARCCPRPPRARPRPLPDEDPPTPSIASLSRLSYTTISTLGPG
testMethodNotes: The concentration (nM) producing half-maximal inhibition of specific binding of [1251] Bolton Hunter CCK-8 to CCK receptors in the mouse cerebral cortex (CCK-B);value ranges from 5.3 to 7.7
Type: tissue-based
readoutName: IC50 (nM)
Provide only the numeric value, understood in nM.

Name the recorded IC50 for CC(Cc1c[nH]c2ccccc12)(NC(=O)OC1C2CC3CC(C2)CC1C3)C(=O)NC[C@H](NC(=O)CCC(=O)Nc1nn[nH]n1)c1ccccc1 (single isomer, unassigned) . 6.3

###

experimentalTarget: UniProt P30551
Sequence (P30551 whole entry): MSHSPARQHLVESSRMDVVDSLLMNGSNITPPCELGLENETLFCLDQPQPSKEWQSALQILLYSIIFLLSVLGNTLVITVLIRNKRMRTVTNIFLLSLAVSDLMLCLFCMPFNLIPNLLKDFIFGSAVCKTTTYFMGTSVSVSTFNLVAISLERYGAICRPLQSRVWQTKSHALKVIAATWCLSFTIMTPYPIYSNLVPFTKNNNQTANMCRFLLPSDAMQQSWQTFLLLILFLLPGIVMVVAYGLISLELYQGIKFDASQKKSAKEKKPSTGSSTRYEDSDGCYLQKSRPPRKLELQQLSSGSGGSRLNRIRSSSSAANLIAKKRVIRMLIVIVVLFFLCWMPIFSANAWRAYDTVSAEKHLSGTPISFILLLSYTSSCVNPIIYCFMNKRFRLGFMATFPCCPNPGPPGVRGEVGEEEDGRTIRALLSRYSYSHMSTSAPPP
testMethodNotes: The concentration (nM) producing half-maximal inhibition of specific binding of [1251] Bolton Hunter CCK-8 to CCK receptors in the rat pancreas (CCK-A); value ranges from 1000 to 1100
readoutName: IC50 (µM)
Provide only the numeric value, understood in µM.

Name the recorded IC50 for CC(Cc1c[nH]c2ccccc12)(NC(=O)OC1C2CC3CC(C2)CC1C3)C(=O)NC[C@H](NC(=O)CCc1nnn[nH]1)c1ccccc1 (single isomer, unassigned) . 1.07
